Data origin: patent US10407440B2

Biological target: human adenosine A1 receptor (Homo sapiens)
Construct: host or cells: CHO cells (membranes)
Sequence (P30542 1-326): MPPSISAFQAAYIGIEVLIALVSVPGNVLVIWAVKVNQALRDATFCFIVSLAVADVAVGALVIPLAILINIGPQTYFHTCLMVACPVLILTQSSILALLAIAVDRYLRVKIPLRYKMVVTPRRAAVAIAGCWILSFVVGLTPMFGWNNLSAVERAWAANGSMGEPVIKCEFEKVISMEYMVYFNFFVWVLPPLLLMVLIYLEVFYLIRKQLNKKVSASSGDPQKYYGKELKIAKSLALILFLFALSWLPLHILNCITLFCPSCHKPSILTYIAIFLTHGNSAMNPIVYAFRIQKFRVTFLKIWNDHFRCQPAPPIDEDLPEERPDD
Experiment: Adenosine A1 receptor binding test (3H-DPCPX binding)
Details: compound at 100 nmol/L; Table 2, measured by Ricerca Biosciences, LLC; read-out: Inhibitory rate for human adenosine A1 receptor binding (3H-DPCPX binding)
measurement type: inhibition at 0.1 µM (%)

{"compound structure": "O=C(Nc1nc(-c2ccco2)c(C(=O)C2CCOCC2)s1)c1cnc2occc2c1", "inhibition at 0.1 µM / %": 47}
{"compound structure": "O=C(Nc1nc(-c2ccco2)c(C(=O)C2CCOCC2)s1)c1cc2ccccc2[nH]1", "inhibition at 0.1 µM / %": 36}

[P] O=C(Nc1nc(-c2ccco2)c(C(=O)C2CCOCC2)s1)c1ccc[nH]1
[Q] O=C(Cc1cccnc1)Nc1nc(-c2ccco2)c(C(=O)C2CCOCC2)s1
[R] O=C(Nc1nc(-c2ccco2)c(C(=O)C2CCOCC2)s1)c1cnc2c(c1)CSCC2
[S] CCc1cncc(C(=O)Nc2nc(-c3ccco3)c(C(=O)C3CCOCC3)s2)c1
[T] O=C(Nc1nc(-c2ccoc2)c(C(=O)C2CCOCC2)s1)c1cnc2c(c1)CCC2
Sort the 5 molecules by inhibition at 0.1 µM; largest first, smallest last. I'd appreciate it if you listed the labels in the requested order.
P, Q, S, R, T

[P] COc1ccc(C(=O)Nc2nc(-c3ccco3)c(C(=O)C3CCOCC3)s2)cn1
[Q] O=C(Nc1nc(-c2ccco2)c(C(=O)C2CCOCC2)s1)c1ccnc(CN2CCOCC2)c1
Param pair: P , Q . Output: the one whose inhibition at 0.1 µM is numerically greater. Respond using the label that marks the chosen record.
P
